system: SF-295 CNS; test: NCI-60 one-dose screen, 48 h; details: 10 µM unless noted
This is part of a sample that, as a whole, favours compounds with a hit. Of some 83,000 tested, about 20% had one in any assay. Active and inactive are the calls of the source. The calls were made as follows: active = growth percent below 10; inactive = the rest.
Parameter call: string, one of active, inactive

1) O=C1NC(=O)c2cc([N+](=O)[O-])cc3cccc1c23 = inactive
2) O=C(Oc1ccc(Cl)cc1[N+](=O)[O-])Oc1ccc(Cl)cc1[N+](=O)[O-] = inactive
3) Nc1ccc2c(c1)Cc1cc(NC(=O)C(F)(F)F)ccc1-2 = inactive

API: the following record is the query input.
stdin: Just curious, what result did `C=C(C)[C@@H]1CC[C@]2(C)[C@H](CC[C@@H]3[C@@H]([C@@](C)(O)CCC=C(C)C)CC[C@]32C)[C@@]1(C)CCC(=O)N1CCN(C)CC1` get here?
stdout: active

====

tested on: ACHN renal; test: NCI-60 one-dose screen, 48 h; settings: 10 µM unless noted
The panel holds about 83,000 compounds, 20% with a hit somewhere; the sample as a whole holds those more often. Activity calls are given as the source filed them. Rule for the calls: active = growth percent below 10; inactive = the rest.
Parameter call: string, one of active, inactive

Answered examples (4):
1) CCOC(=O)CCC[P+](c1ccccc1)(c1ccccc1)c1ccccc1 = inactive
2) O=c1c2c3c(sc2n2cnnc2n1Cc1ccccc1)CCCC3 = inactive
3) O=C(Nc1cccc(C2=NCCN2)c1)c1cccc(C(=O)Nc2cccc(C3=NCCN3)c2)c1 = inactive
4) CCN(CC)c1ccc(/C=C/C=C2\NC(=O)NC2=O)cc1 = inactive

stdin: Please let me know the test result on file for `C=C(C)[C@@H]1CC[C@]2(C)[C@H](CC=C3[C@@H]4[C@@H](C)[C@H](C)CC[C@]4(C(N)=O)CC[C@]32C)[C@@]1(C)CCC#N` .
stdout: active

====

tested on: K-562 leukemia; assay: NCI-60 one-dose screen, 48 h; conditions: 10 µM unless noted
The panel holds about 83,000 compounds, 20% with a hit somewhere; the sample as a whole holds those more often. Active and inactive are the calls of the source. The calls were made as follows: active = growth percent below 10; inactive = the rest.
A correct response names exactly one class from active, inactive

Example results:
1) C[n+]1cccc(NC(=O)c2ccc3ccc4ccc(C(=O)Nc5ccc[n+](C)c5)nc4c3n2)c1 = inactive
2) Cc1ccc(Cn2c(O)c(N=NC(=O)c3ccc(S(N)(=O)=O)cc3)c3ccccc32)cc1 = inactive
3) CC(C)(C)c1cc(C(=O)Nc2ccccc2C(=O)NCCN)cc(C(C)(C)C)c1 = active
4) C#C[C@]1(O)CC[C@H]2[C@@H]3CC=C4c5nc(Nc6ncccn6)sc5CC[C@]4(C)[C@H]3CC[C@@]21C = inactive
5) COc1ccc(N(c2nc(-c3ccc([N+](=O)[O-])cc3)cs2)C(C)C)cc1 = inactive

stdin: Which result was noted for this compound in the test: `COc1ccc2c(c1)c(-c1noc(C(=O)c3cn(C)c4ncc(Br)cc34)n1)cn2C`
stdout: inactive

stdin: Check the results log: what was the call for `Nn1c(Nc2ccc(S(=O)(=O)Nc3ncccn3)cc2)nnc(/C=C/c2c(O)ccc3ccccc23)c1=O` ?
stdout: inactive

stdin: Assay result, entry `CC(C)=CCC[C@](C)(O)[C@H]1CC[C@]2(C)[C@@H]1CC[C@@H]1[C@@]3(C)CC[C@H](OC(=O)CCC(=O)O)C(C)(C)[C@@H]3CC[C@]12C` — outcome?
stdout: inactive

====

Test system: HT29 colon
Assay: NCI-60 one-dose screen, 48 h (100 = growth as untreated, 0 = no growth, -100 = all killed)
Details: 10 µM unless noted
Description: Growth inhibition of the HT29 human tumor cell line is measured as a screen for anti-cancer activity. Cells are grown in 96 well plates and exposed to the test compound for 48 hours. Compounds are tested at a single concentration, which is 10^-5 M for most compounds. The reported endpoint is percent growth (GI% or GIPRCNT), where numbers from 0 - 100% represent growth inhibition, and numbers from -100% - 0 represent cell death. For example, a value of 40 represents 60% growth inhibition. […]
This is part of a sample that, as a whole, favours compounds with a hit. Of some 83,000 tested, about 20% had one in any assay.
property.name: growth (%)
Give your result in % as a bare value.

// sample CCOC(=O)c1nn(C2CCCCO2)c2ccc(NC(=O)Cn3nnc4ccccc43)cc12 (stereo unspecified) , its growth was 115

Kindly note the recorded growth for `CCOC(=O)C(=Cc1ccccc1[N+](=O)[O-])C(=O)OCC` , which is 11.4

For record `O=C(N=c1n(-c2ccccc2)nc2n1CCN2C1=NCCN1)c1ccc(Cl)cc1` the listed growth is 67.5

The recorded growth for `Cn1cc(-c2nnc(-c3cn(C)c4ncc(Br)cc34)o2)c2ccccc21` is 87.7

Just so you know, measured growth for `Clc1ccc(/C=N/Nc2nc3ccccc3s2)c(Cl)c1` came out at 84.1

Measured growth, CCN(CC)CCCC(C)Nc1c2ccc(C)cc2nc2ccc(OC)cc12 (stereo unspecified) : -26.1

====

Test system: RXF 393 renal
Experiment: NCI-60 one-dose screen, 48 h (100 = growth as untreated, 0 = no growth, -100 = all killed)
Conditions: 10 µM unless noted
Method: Cells are grown in 96 well plates and exposed to the test compound for 48 hours. Compounds are tested at a single concentration, which is 10^-5 M for most compounds. The reported endpoint is percent growth (GI% or GIPRCNT), where numbers from 0 - 100% represent growth inhibition, and numbers from -100% - 0 represent cell death. For example, a value of 40 represents 60% growth inhibition. A value of 0 means no net growth occurred over the course of the experiment. […]
The panel holds about 83,000 compounds, 20% with a hit somewhere; the sample as a whole holds those more often.
hey, just use Condition met if measured growth is less than 70%, otherwise Condition not met

1. COc1ccc(-c2cc(-c3ccc(Cl)cc3)nc(NCCCCNc3ccnc4cc(Cl)ccc34)n2)cc1 = Condition met
2. COc1ccc2nc3c(cc2c1)C(=O)CC(C(F)(F)F)C3 (stereo not given) = Condition met
3. C=CCCCCCCCCC(=O)OC(C)C = Condition not met

stdin: Please check: growth for `Cc1ccc(-c2cc(O)c(-c3ccc(C)cc3C)cc2O)c(C)c1` , strictly under 70% or not?
stdout: Condition met

stdin: Below 70% on growth? Entry `CNC(=O)c1cc(Oc2cccc3nc(NC(=O)Nc4cc(C(F)(F)F)cc(C(F)(F)F)c4)ccc23)ccn1`
stdout: Condition met

====

system: SK-MEL-5 melanoma; experiment: NCI-60 one-dose screen, 48 h (100 = growth as untreated, 0 = no growth, -100 = all killed); conditions: 10 µM unless noted
The panel holds about 83,000 compounds, 20% with a hit somewhere; the sample as a whole holds those more often. The source made the active and inactive calls. Rule for the calls: active = growth percent below 10; inactive = the rest.
property.name: growth

Solved cases (2 shown):
1) O=c1[nH]c2cc(Cl)c(Cl)cc2n2cc3ncccc3c12 = 84.8% (inactive)
2) O=C(OCc1ccc2c(Cl)cc(Cl)c(O)c2n1)N1CCN(C(=O)c2cc3cc(F)ccc3[nH]2)CC1 = -33% (active)

# growth (compound: `O=C1COCCN1c1ccc(NCc2cn(Cc3ccccc3)c3ccccc23)cc1` ) is 91.5% (inactive)

GET /value?item= `C=C(C)[C@@H]1CC[C@]2(C(N)=O)CC[C@]3(C)[C@H](CC[C@@H]4[C@@]5(C)C/C(=C/c6cccnc6)C(=O)C(C)(C)[C@@H]5CC[C@]43C)[C@@H]12` &field=growth returns -61.9% [100 µM] (active)

Given item `CCOC(=O)c1c[nH]n2c(=S)ncnc12` , the value recorded as its growth is 105% (inactive)

For record `Cc1ccc(NC(=S)/N=c2/n(-c3ccccc3)nc3n2CCN3C2=NCCN2)cc1` the listed growth is 101% (inactive)

// field: growth; key: `Cc1ccc(S(=O)(=O)Oc2ccc([N+](=O)[O-])cc2[N+](=O)[O-])cc1` ; value = 76.5% (inactive)

`Cn1cc(-c2noc(-c3cn(C)c4ncc(F)cc34)n2)c2cc(Br)ccc21` yielded growth of 83.9% (inactive)

growth measured on `O=c1[nH]c(CN2CCN(c3cccc(Cl)c3)CC2)nc2cc(Cl)ccc12` = 99.4% (inactive)

growth measured on `CC(C)(C)c1cc(C(=O)N2CCC(C(=O)NCCN)CC2)cc(C(C)(C)C)c1` = 95.4% (inactive)

Query `C=C1C(=O)O[C@H]2[C@H]1CC/C(COC(=O)NCc1ccc(Cn3c(=O)sn(-c4ccc(Cl)cc4)c3=O)cc1)=C\CC[C@@]1(C)O[C@@H]21` yields growth of 97.6% (inactive)

# growth of `O=[N+]([O-])c1cc(CCl)ccc1OCCBr` = 98.6% (inactive)

growth reading for `CCn1cc(-c2cc(-c3ccc(Cl)cc3)nc(N)n2)c(-c2ccc(Br)cc2)n1` : 90.8% (inactive)

====

System: HS 578T breast
Test: NCI-60 one-dose screen, 48 h (100 = growth as untreated, 0 = no growth, -100 = all killed)
Conditions: 10 µM unless noted
Method: Growth inhibition of the HS 578T human tumor cell line is measured as a screen for anti-cancer activity. Cells are grown in 96 well plates and exposed to the test compound for 48 hours. Compounds are tested at a single concentration, which is 10^-5 M for most compounds. The reported endpoint is percent growth (GI% or GIPRCNT), where numbers from 0 - 100% represent growth inhibition, and numbers from -100% - 0 represent cell death. For example, a value of 40 represents 60% growth inhibition. […]
Compounds without any hit were thinned out: in the full panel of roughly 83,000, 20% have a hit.
Listed next: entries and their corresponding growth.
Kindly answer with a numeric value in %, unit omitted.

1) Cn1cc(-c2nnc(-c3cn(C)c4ncc(Br)cc34)s2)c2cc(Br)ccc21 = 89.3
2) COc1ccc(C(=O)CCC(=O)O)cc1 = 105
3) C[C@@H]1C[C@H]2C(=O)O[C@@H](C)[C@H](NC(=O)[C@H](Cc3cc(F)cc(F)c3)NC(=O)Nc3ccc(Cl)cc3F)C(=O)N3C[C@H](O)C[C@H]3C(=O)N3CCN(C)C[C@H]3C(=O)N[C@@H](C)C(=O)N2C1 = 37.9

Please look at the following compound next.
The compound identified as N#Cc1c(Cl)nc(SCC2CO2)nc1-c1ccccc1 (centres undefined) registered its growth at 121
